The following are reported log10(IC50) results, target or system CDK2 (UniProt P24941).
Heads up, the numbers here are log10 of IC50 in µM units.

mol-smiles: CNS(=O)(=O)c1ccc2c(c1)/C(=C/c1[nH]cc3c1CCNC3=O)C(=O)N2
log10(IC50): -2.05

mol-smiles: COc1ccc(-c2ccc3c(c2)NC(=O)/C3=C\c2[nH]cc3c2CCOC3=O)cc1
log10(IC50): 0.00

mol-smiles: O=C1Nc2ccc(Br)cc2/C1=C/c1[nH]cc2c1CCNC2=O
log10(IC50): -0.28

Give the measured log10(IC50) of `O=C1Nc2ccc(F)cc2/C1=C/c1[nH]cc2c1CCNC2=O` .
-0.52

* * *

Reported log10 of IC50 for target or system UniProt:P24941, by entry.
Answers are given as log10 of IC50 in nM.

Solved cases below.
mol-smiles: O=C1Nc2ccc(Br)cc2/C1=C/c1[nH]cc2c1CCOC2=O
system-tested: UniProt:P24941
measured-result: 2.38
//
mol-smiles: O=C1Nc2ccc3c(c2/C1=C/c1[nH]cc2c1CCOC2=O)CCOS3(=O)=O
system-tested: UniProt:P24941
measured-result: 2.11
//
mol-smiles: O=C1Nc2cc(-c3ccccc3)ccc2/C1=C/c1[nH]cc2c1CCNC2=O
system-tested: UniProt:P24941
measured-result: 3.78
//
mol-smiles: O=C1Nc2cc(-c3ccc(F)cc3)ccc2/C1=C/c1[nH]cc2c1CCOC2=O
system-tested: UniProt:P24941
measured-result: 3.03
//
mol-smiles: Cc1c(Cl)ccc2c1/C(=C/c1[nH]cc3c1CCOC3=O)C(=O)N2
system-tested: UniProt:P24941
measured-result: 2.49
//
mol-smiles: O=C1Nc2ccc(S(=O)(=O)N3CCCc4ccccc43)cc2/C1=C/c1[nH]cc2c1CCOC2=O
system-tested: UniProt:P24941
measured-result: 2.74
//
mol-smiles: O=C1Nc2ccc(-c3ccccc3)cc2/C1=C/c1[nH]cc2c1CCOC2=O
system-tested: UniProt:P24941
measured-result: 3.58
//
mol-smiles: Cc1c(Br)ccc2c1/C(=C/c1[nH]cc3c1CCOC3=O)C(=O)N2
system-tested: UniProt:P24941
measured-result: 2.20

Lookup: log10 of IC50 / UniProt:P24941 / `O=C1Nc2ccc(S(=O)(=O)N3CCc4ccccc4C3)cc2/C1=C/c1[nH]cc2c1CCOC2=O`
2.86

* * *

Below are pIC50 values recorded for UniProtKB P24941.
Lab note: report pIC50 as minus log10 of the concentration in molar units, number only.

mol-smiles: CN(C)S(=O)(=O)c1ccc2c(c1)/C(=C/c1[nH]cc3c1CCOC3=O)C(=O)N2
system-tested: UniProtKB P24941
pIC50: 7.52
--
mol-smiles: CNS(=O)(=O)c1ccc2c(c1C)/C(=C/c1[nH]cc3c1CCOC3=O)C(=O)N2
system-tested: UniProtKB P24941
pIC50: 8.26
--
mol-smiles: O=C1Nc2ccc(F)cc2/C1=C/c1[nH]cc2c1CCOC2=O
system-tested: UniProtKB P24941
pIC50: 7.10
--
mol-smiles: O=C1Nc2ccc(Cl)cc2/C1=C/c1[nH]cc2c1CCOC2=O
system-tested: UniProtKB P24941
pIC50: 7.05
--
mol-smiles: O=C1Nc2ccc(S(=O)(=O)N3CCc4ccccc43)cc2/C1=C/c1[nH]cc2c1CCOC2=O
system-tested: UniProtKB P24941
pIC50: 6.46

Which pIC50 value is on record for `O=C1Nc2cc(-c3cccc(C(=O)O)c3)ccc2/C1=C/c1[nH]cc2c1CCOC2=O` ?
5.27

How about `CN(c1cccc(Cl)c1)S(=O)(=O)c1ccc2c(c1)/C(=C/c1[nH]cc3c1CCOC3=O)C(=O)N2` ?
5.00

Another molecule to look at: `O=C1Nc2ccc(C(=O)O)cc2/C1=C/c1[nH]cc2c1CCOC2=O`
8.40

Item: `CC(=O)Nc1ccc2c(c1)NC(=O)/C2=C\c1[nH]cc2c1CCOC2=O`
5.10

Entry to check: `COc1ccc2c(c1)NC(=O)/C2=C\c1[nH]cc2c1CCOC2=O`
5.81

Where do the numbers come from? From the Kinase Knowledgebase extract (Sharma et al. 2016).
